# credit: patent US20250177383A1

test.system: IL-17A/F (Homo sapiens, UniProt Q16552+Q96PD4)
Sequence (Q16552 24-155): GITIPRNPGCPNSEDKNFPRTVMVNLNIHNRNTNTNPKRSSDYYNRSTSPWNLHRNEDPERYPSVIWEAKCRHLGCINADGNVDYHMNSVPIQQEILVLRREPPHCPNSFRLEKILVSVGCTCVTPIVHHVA
Sequence (Q96PD4 31-163): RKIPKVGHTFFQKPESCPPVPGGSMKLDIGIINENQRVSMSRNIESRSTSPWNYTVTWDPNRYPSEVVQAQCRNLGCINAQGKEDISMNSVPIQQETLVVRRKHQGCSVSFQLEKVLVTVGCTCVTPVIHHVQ
test.name: IL-17A/F HEK-Blue Cell Assay
Assay type: cell-based
condition.set: HEK-Blue IL-17 reporter cells, IL-17A/F stimulation, 20 hours, SEAP readout; read-out: IL17AF HEK Blue pIC50 (converted)
Field: IC50. Provide a value for each of the molecules that follow.

Below are worked cases with known answers.
{"smiles.str": "C[C@@H](c1ccc(NC(=O)[C@@H](NC(=O)C2(F)CC2)C(C2CC2)C2CC2)c(F)c1)[C@@H](NC(=O)N(C)C1CC1)C(=O)N1CCN(C)CC1", "IC50": "0.1 to 10 µM"}
{"smiles.str": "CCOCCN(C)C(=O)N[C@@H](C(=O)N1CCN(C)CC1)[C@@H](C)c1ccc(NC(=O)[C@@H](NC(=O)c2ccnn2CC)C(C2CC2)C2CC2)c(F)c1", "IC50": "0.1 to 10 µM"}

Attention now turns to another entry.
Item CCOC(=O)N1CC[C@H]1C(=O)N[C@@H](C(=O)N1CCN(C)[C@H](C)C1)[C@@H](C)c1ccc(NC(=O)[C@@H](NC(=O)C2(F)CC2)C(C2CC2)C2CC2)c(F)c1 : provide IC50 0.1 to 10 µM

----------
test.system: IL-17A/A (Homo sapiens, UniProt Q16552)
test.name: IL-17A/A HEK-Blue Cell Assay
Assay type: cell-based
condition.set: HEK-Blue IL-17 reporter cells, IL-17A/A stimulation, 20 hours, SEAP readout; read-out: IL17 AA HEK-5 pIC50 (converted)
quantity.kind: IC50

{"molecule": "CCC(=O)N[C@@H](C(=O)N1CCC(C)(O)CC1)[C@@H](C)c1ccc(NC(=O)[C@@H](NC(=O)c2ccnn2CCF)C(C2CC2)C2CC2)c(F)c1", "quantity.kind": "IC50", "result": "< 10 nM"}
{"molecule": "CCn1nccc1C(=O)N[C@H](C(=O)Nc1ccc([C@H](C)[C@@H](NC(=O)COC)C(=O)N2CCN(C)[C@H](C)C2)cc1F)C(C1CC1)C1CC1", "quantity.kind": "IC50", "result": "< 10 nM"}
{"molecule": "CCOC(=O)N(C)[C@@H](C)C(=O)N[C@@H](C(=O)N1CCN(C)[C@H](C)C1)[C@@H](C)c1ccc(NC(=O)[C@@H](NC(=O)c2ccnn2CC)C(C2CC2)C2CC2)c(F)c1", "quantity.kind": "IC50", "result": "< 10 nM"}
{"molecule": "CCC(=O)NC(C(=O)N1CCN(C)CC1)C(c1ccc(NC(=O)[C@@H](NC(=O)c2ccnn2CC)C(C2CC2)C2CC2)c(F)c1)C(F)(F)F (single isomer, unassigned) [Compound 350]", "quantity.kind": "IC50", "result": "100 to 10000 nM"}
{"molecule": "CCC(=O)N[C@@H](C(=O)N1C[C@H]2C[C@@H]1CN2C)[C@@H](C)c1ccc(NC(=O)[C@@H](NC(=O)c2ccnn2C(C)C)C(C2CC2)C2CC2)c(F)c1", "quantity.kind": "IC50", "result": "10 to 100 nM"}
{"molecule": "CCC(=O)N[C@@H](C(=O)N1CCN(C)[C@H](C)C1)[C@@H](C)c1ccc(NC(=O)[C@@H](NC(=O)c2ccnn2C)C(C2CC2)C2CC2)c(F)c1", "quantity.kind": "IC50", "result": "< 10 nM"}
{"molecule": "COC(=O)N1CC[C@H]1C(=O)N[C@@H](C(=O)N1CCN(C)[C@H](C)C1)[C@@H](C)c1ccc(NC(=O)[C@@H](NC(=O)C2(F)CC2)C(C2CC2)C2CC2)c(F)c1", "quantity.kind": "IC50", "result": "< 10 nM"}
{"molecule": "CCn1nccc1C(=O)N[C@H](C(=O)Nc1ccc([C@H](C)[C@@H](NC(=O)CC2CC2)C(=O)N2CCN(C)[C@H](C)C2)cc1F)C(C1CC1)C1CC1", "quantity.kind": "IC50", "result": "< 10 nM"}

Okay, here is my list. What is IC50 for each of these?
1. CCC(=O)N[C@@H](C(=O)N1CCC(C)(O)CC1)[C@@H](C)c1ccc(NC(=O)[C@@H](NC(=O)c2ccnn2CCN2CCOCC2)C(C2CC2)C2CC2)c(F)c1
2. CCC(=O)N[C@@H](C(=O)N1C[C@H]2C[C@@H]1CN2C)[C@@H](C)c1ccc(NC(=O)[C@@H](NC(=O)c2ccnn2CC)C(C2CC2)C2CC2)c(F)c1
3. CCOCCN(C)C(=O)N[C@@H](C(=O)N1CCN(C)CC1)[C@@H](C)c1ccc(NC(=O)[C@@H](NC(=O)c2ccnn2CC)C(C2CC2)C2CC2)c(F)c1

1. 10 to 100 nM
2. 10 to 100 nM
3. 10 to 100 nM

----------
test.name: Microsomal stability, human liver microsomes
Assay type: in vitro ADME
condition.set: human liver microsomes 0.5 mg protein/mL, 1 μM test compound, NADPH, 37° C., 60 min; read-out: HLM Clint
Field: microsomal CLint at 1 μM. Provide a value for each of the molecules that follow.

Below are worked cases with known answers.
{"molecule": "CCC(=O)N[C@@H](C(=O)N1CCN(C)CC1)[C@@H](C)c1ccc(NC(=O)[C@@H](NC(=O)c2ccnn2C(C)C)[C@H]2CC[C@H](C)CC2)c(F)c1 [L, reference compound]", "microsomal CLint at 1 μM": "> 150 µL/min/mg"}
{"molecule": "CCC(=O)N[C@@H](C(=O)N1CCN(C)[C@H](C)C1)[C@@H](C)c1ccc(NC(=O)[C@@H](NC(=O)C2(F)CC2)C(C2CC2)C2CC2)c(F)c1", "microsomal CLint at 1 μM": "< 50 µL/min/mg"}

Okay, here is my list. What is microsomal CLint at 1 μM for each of these?
1. CCc1nonc1C(=O)N[C@H](C(=O)Nc1ccc([C@H](C)[C@@H](NC(C)=O)C(=O)N2CCN(C)[C@H](C)C2)cc1F)C(C1CC1)C1CC1
2. CCC(=O)N[C@@H](C(=O)N1C[C@@H](C)N(C)C[C@H]1C)[C@@H](C)c1ccc(NC(=O)[C@@H](NC(=O)c2ccnn2CC)C(C2CC2)C2CC2)c(F)c1
3. CCC(=O)N[C@@H](C(=O)N1C[C@@H](C)N(C)C[C@H]1C)[C@@H](C)c1ccc(NC(=O)[C@@H](NC(=O)c2ccnn2CC)[C@H]2CC[C@H](C)CC2)c(F)c1 [A, reference compound]

["50 to 150 µL/min/mg", "< 50 µL/min/mg", "50 to 150 µL/min/mg"]

----------
test.name: Rat pharmacokinetics, PO
Format: in vivo
condition.set: male rat, PO 5 mg/kg oral gavage, plasma, Linear/log trapezoidal; read-out: Rat PO AUC0-t
Field: AUC(0-t). Provide a value for each of the compounds that follow.

Okay, here is my list. What is AUC(0-t) for each of these?
1. CCc1nonc1C(=O)N[C@H](C(=O)Nc1ccc([C@H](C)[C@@H](NC(C)=O)C(=O)N2CCN(C)[C@H](C)C2)cc1F)C(C1CC1)C1CC1
2. CCC(=O)N[C@@H](C(=O)N1CCN(C)CC1)[C@@H](C)c1ccc(NC(=O)[C@@H](NC(=O)c2ccnn2C(C)C)C(C2CC2)C2CC2)c(F)c1
3. CCn1nccc1C(=O)N[C@H](C(=O)Nc1ccc([C@H](C)[C@@H](NC(=O)COC)C(=O)N2CCN(C)CC2)cc1F)C(C1CC1)C1CC1

1. < 500 ng·h/mL
2. 500 to 1000 ng·h/mL
3. > 1000 ng·h/mL

Okay, here is my list. What is AUC(0-t) for each of these?
1. CCC(=O)N[C@@H](C(=O)N1CCN(C)[C@@H](C)C1)[C@@H](C)c1ccc(NC(=O)[C@@H](NC(=O)c2ccnn2CC)[C@H]2CC[C@H](C)CC2)c(F)c1 [I, reference compound]
2. CCC(=O)N[C@@H](C(=O)N1CCN(C)[C@@H](C)C1)[C@@H](C)c1ccc(NC(=O)[C@@H](NC(=O)c2ccnn2CC)C(C2CC2)C2CC2)c(F)c1

1: < 500 ng·h/mL; 2: 500 to 1000 ng·h/mL
